The origin of these recorded values is PubChem BioAssay.

For each record, write down the corresponding composite z-score.
- Assay summary: probe aWnt5a binding to arrayed compounds – biochemical, biotinylated probe, 635/667 nm fluorescence, primary screen (AID 1113);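 further: score merges 667 nm fluorescence intensity with signal-to-noise per printed feature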
- Condition summary: small-molecule microarray, higher = more signal
Write no unit; give the number alone.

Task: Let me know recorded composite z-score for `CCOC(=O)C[C@H]1[C@H](OC(=O)c2ccc(C(=O)c3ccccc3)cc2)[C@@H](NC(=O)c2ccc3ccccc3n2)c2cc(OCCCO)ccc2N1C(=O)Cc1ccc(OC)cc1` , thanks.
Result: -0.202

Task: Let me know recorded composite z-score for `Cc1ccc(S[C@]2(C(=O)NCC(F)(F)F)CC(=O)N(Cc3cc(C(F)(F)F)cc(C(F)(F)F)c3)[C@@H]2c2ccc(CO)cc2I)cc1` , thanks.
Result: -0.231

Task: Let me know recorded composite z-score for `COCC(=C=CC[C@H](O)c1ccccc1OCCO)C[C@H](O)c1ccccn1` , thanks.
Result: -0.18

Task: Let me know recorded composite z-score for `CC(C)[Si](C#C[Si](C(C)C)(C(C)C)C(C)C)(O[C@H](c1ccccc1)c1cn(Cc2ccccc2)nn1)C(C)C` , thanks.
Result: -0.0794

Task: Let me know recorded composite z-score for `COCCOC(=O)N1C(=O)[C@@]2(c3cc(C#CC4(O)CCCCCC4)ccc31)[C@H](C(=O)Nc1nc3ccccc3s1)[C@H]1C(=O)O[C@H](c3ccccc3)[C@H](c3ccccc3)N1[C@@H]2c1ccc(O)cc1` , thanks.
Result: -0.18

Task: Let me know recorded composite z-score for `CN(C)C(=O)[C@]1(Cc2ccccc2CN=[N+]=[N-])N=C(c2ccc(OCCCO)cc2)O[C@@H]1c1ccccc1` , thanks.
Result: 0.0337

Task: Let me know recorded composite z-score for `C=CC[C@]1(C(=O)N2CCOCC2)COC(c2ccc(OCCCO)cc2)=N1` , thanks.
Result: -0.0236

====

- Target under test: E3 ubiquitin-protein ligase XIAP (Homo sapiens) (UniProt P98170)
- Sequence (P98170 whole entry, looked up): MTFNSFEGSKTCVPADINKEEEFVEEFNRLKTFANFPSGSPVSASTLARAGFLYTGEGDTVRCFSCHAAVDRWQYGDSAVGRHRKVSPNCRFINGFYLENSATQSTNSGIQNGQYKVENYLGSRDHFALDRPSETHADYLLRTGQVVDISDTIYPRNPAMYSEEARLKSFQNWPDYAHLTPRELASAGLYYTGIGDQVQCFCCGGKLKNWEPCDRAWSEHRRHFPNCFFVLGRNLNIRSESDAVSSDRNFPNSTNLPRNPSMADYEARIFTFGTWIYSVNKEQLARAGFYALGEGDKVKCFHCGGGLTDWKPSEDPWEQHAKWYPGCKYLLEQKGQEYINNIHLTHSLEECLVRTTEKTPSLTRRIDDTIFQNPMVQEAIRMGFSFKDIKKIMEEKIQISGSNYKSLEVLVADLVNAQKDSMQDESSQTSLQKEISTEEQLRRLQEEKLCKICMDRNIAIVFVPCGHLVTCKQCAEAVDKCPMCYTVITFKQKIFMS
- Assay summary: small molecules binding XIAP protein – biophysical, small-molecule microarray, fluorescence 635 nm, primary screen (AID 1181);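 further: score merges 667 nm emission and signal to noise over triplicate slides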
- Condition summary: higher = more signal
Classify by measured composite z-score: fulfilled if it is equal to or exceeds 0.2, not fulfilled if it is smaller.

Task: Check this molecule for composite z-score at or above 0.2: `C=C[C@@H](OC)[C@H](OC(=O)Nc1ccc(OC)cc1)c1ccc(O)c(F)c1`
Result: fulfilled

Task: Check this molecule for composite z-score at or above 0.2: `C=CC[C@@H](OC(=O)Nc1ccc(SC)cc1)c1ccc(O)c(F)c1`
Result: not fulfilled

Task: Check this molecule for composite z-score at or above 0.2: CCCCN1CC=CC23O[C@@H]4/C=C\CCC(C)OC(=O)C4[C@H]2C(=O)N(CCCO)[C@@H]3C1=O (stereo partly drawn)
Result: not fulfilled

Task: Check this molecule for composite z-score at or above 0.2: `COc1ccc([Si](C)(C)[C@H]2[C@H](CC(=O)N3Cc4ccccc4C[C@H]3CO)O[C@@]3(C(=O)N(Cc4ccc(N5CCOC5=O)cc4)c4ccccc43)[C@@H]2C)cc1`
Result: not fulfilled

Task: Check this molecule for composite z-score at or above 0.2: CC(C)(C)OC(=O)CC[C@@]1(C(=O)NCC(O)CO)N=C(c2ccc(OCCCO)cc2)O[C@@H]1c1ccccc1CN=[N+]=[N-] (stereo partly drawn)
Result: not fulfilled

Task: Check this molecule for composite z-score at or above 0.2: `C#Cc1cc2ccccc2oc1=O`
Result: not fulfilled

Task: Check this molecule for composite z-score at or above 0.2: C=CCC(OC(C)=O)[C@@H]1[C@@H](N(Cc2cccc3ccccc23)C(=O)Cc2ccc(F)cc2)c2cc(OCCCO)ccc2N1C(=O)c1ccc2ccccc2c1 (stereo partly drawn)
Result: fulfilled

Task: Check this molecule for composite z-score at or above 0.2: `O=C(NCc1ccc(F)cc1)[C@H]1C[C@H]2C(=O)NCC(=O)N2[C@H]1c1ccc(O)cc1`
Result: not fulfilled

====

- Assay summary: plasmodial surface anion channel blockers, osmotic lysis – cell-based, P. falciparum Indochina, OD700, 18 h, primary screen (AID 1157)
- Condition summary: P. falciparum Indochina infected erythrocytes, osmotic lysis OD700, 18 h; higher = more signal, called active from +8 up or from −8 down
Classify by measured z-score: condition met if it is equal to or exceeds 0.5, condition not met if it is smaller.

Task: Check this compound for z-score at or above 0.5: COc1cc2c(cc1O)C(C1CC1)N(C)CC2 (stereo not given)
Result: condition met

Task: Check this compound for z-score at or above 0.5: `C=CC[C@@H](OC(=O)Nc1ccc(OC)cc1)c1ccc(O)c(F)c1`
Result: condition not met

Task: Check this compound for z-score at or above 0.5: `CO[C@H]1O[C@H](CO)[C@@H](OC(=O)CCc2ccccc2)[C@@H]2OC(=O)[C@@H](Cc3ccccc3)C/C=C/C[C@H](Cc3ccccc3)C(=O)O[C@@H]12`
Result: condition met

Task: Check this compound for z-score at or above 0.5: `CCCN1C(=O)[C@@]2(Cc3ccccc31)N=C(c1ccc(OCCCO)cc1)O[C@H]2c1ccccc1`
Result: condition met

Task: Check this compound for z-score at or above 0.5: `COC(=O)[C@]1(CCS(=O)(=O)c2ccccc2)N=C(c2ccc(OCCCO)cc2)O[C@@H]1c1ccccc1N=[N+]=[N-]`
Result: condition met

Task: Check this compound for z-score at or above 0.5: Cn1cccc1C(O)C1C=CC2C(=O)N(c3ccccc3)C(=O)C2N1Nc1ccccc1 (stereo not given)
Result: condition met

Task: Check this compound for z-score at or above 0.5: `COCCCNC(=O)[C@@H]1c2ccccc2C(=O)N(C(C)C)[C@H]1c1ccc(CO)cc1`
Result: condition not met

Task: Check this compound for z-score at or above 0.5: CC1CC/C=C\[C@H]2OC34C=CCN(Cc5ccccc5)C(=O)[C@H]3N(C(CO)C(C)C)C(=O)[C@@H]4C2C(=O)O1 (stereo not given in full)
Result: condition not met

Task: Check this compound for z-score at or above 0.5: O=C1OCCC=C[C@H]2OC34C=CCN(c5ccc6ccccc6c5)C(=O)[C@H]3N(CCCO)C(=O)[C@@H]4C12 (stereo not given in full)
Result: condition not met

Task: Check this compound for z-score at or above 0.5: `COCCOC(=O)N1C(=O)[C@@]2(c3ccccc31)[C@H](c1ccc(O)cc1)N1[C@H](c3ccccc3)[C@H](c3ccccc3)OC(=O)[C@H]1[C@@H]2C(=O)N1CCN(c2ncccn2)CC1`
Result: condition not met

Task: Check this compound for z-score at or above 0.5: `COC(=O)[C@@]1(Cc2ccccc2)[C@H]2c3cc(C(=O)N(C)C)n(Cc4ccc(C)o4)c3C[C@H]2CN1C(=O)c1ccccc1`
Result: condition not met

Task: Check this compound for z-score at or above 0.5: `CCOC(=O)C[C@H]1[C@H](OC(=O)c2cc3ccccc3oc2=O)[C@@H](NC(=O)c2ccccc2)c2cc(OCCCO)ccc2N1C(=O)c1ccccc1`
Result: condition not met

Task: Check this compound for z-score at or above 0.5: CC1CC/C=C\[C@H]2OC34C=CCN(C(C)(C)C)C(=O)[C@H]3N(CCCCCO)C(=O)[C@@H]4C2C(=O)O1 (stereo not given in full)
Result: condition not met

Task: Check this compound for z-score at or above 0.5: `CN(C)C(=O)[C@]1(CCC(=O)OC(C)(C)C)N=C(c2ccc(OCCCO)cc2)O[C@@H]1c1ccccc1CN=[N+]=[N-]`
Result: condition met

Task: Check this compound for z-score at or above 0.5: `[N-]=[N+]=NCc1ccccc1[C@@H]1OC(c2ccc(OCCCO)cc2)=N[C@]1(CCS(=O)(=O)c1ccccc1)C(=O)O`
Result: condition met

Task: Check this compound for z-score at or above 0.5: CCCCC[C@H]1OC[C@@]23C=C(Br)[C@@H](CC12)[C@@]1(CO1)C3=O (stereo not given in full)
Result: condition not met

Task: Check this compound for z-score at or above 0.5: `C=C[C@@H](CO)N(Cc1ccc(OC)cc1)S(=O)(=O)c1ccc(Br)cc1`
Result: condition not met

Task: Check this compound for z-score at or above 0.5: OCCCC1=CC(c2ccc(CN3CCCC3)cc2)N(Cc2cc3c(cc2Br)OCO3)CC1 (stereo not given)
Result: condition met

Task: Check this compound for z-score at or above 0.5: Cc1ccc(C(C)CC(O)C2C=CC3C(=O)N(c4ccccc4)C(=O)C3N2Nc2ccccc2)o1 (stereo not given)
Result: condition not met

Task: Check this compound for z-score at or above 0.5: `O=C1[C@H]2C=C(I)[C@H](C[C@@H]2OCCOCCO)[C@@]12CO2`
Result: condition not met

Task: Check this compound for z-score at or above 0.5: CC(C)C(CO)N1C(=O)[C@@H]2C3C(=O)OCCC/C=C\[C@H]3OC23C=CCN(c2ccc4ccccc4c2)C(=O)[C@@H]13 (stereo not given in full)
Result: condition not met

Task: Check this compound for z-score at or above 0.5: `COCCOC(=O)N1C(=O)[C@@]2(c3cc(C#CC4=CCCCC4)ccc31)[C@H](c1ccccc1OCCO)N1[C@H](c3ccccc3)[C@H](c3ccccc3)OC(=O)[C@H]1[C@@H]2C(=O)NC[C@H](O)c1ccccc1`
Result: condition met

Task: Check this compound for z-score at or above 0.5: `C=CCN1Cc2ccccc2[C@@H]2OC(c3ccc(OCCCO)cc3)=N[C@]2(CC=C)C1=O`
Result: condition met

Task: Check this compound for z-score at or above 0.5: `C=C(COC)/C(=C/C[C@H](OC(=O)c1ccncc1)c1ccc(CO)o1)c1cnc2ccccc2c1`
Result: condition not met

Task: Check this compound for z-score at or above 0.5: O=C(C1N=C(c2ccc(OCCCO)cc2)N(c2ccccc2)O1)N1CCCCC1 (stereo not given)
Result: condition not met

Task: Check this compound for z-score at or above 0.5: `CCOC(=O)[C@@H]1CCCCN1C(=O)C(=O)OC`
Result: condition not met

Task: Check this compound for z-score at or above 0.5: `COCCOC(=O)N1C(=O)[C@@]2(c3cc(C#CCC(C(=O)OC)C(=O)OC)ccc31)[C@H](c1ccc(OCCO)cc1)N1[C@H](c3ccccc3)[C@H](c3ccccc3)OC(=O)[C@H]1[C@@H]2C(=O)N1CCc2cc(OC)c(OC)cc2C1`
Result: condition met

Task: Check this compound for z-score at or above 0.5: `CCOC(=O)C[C@H]1[C@H](OC(=O)c2ccc(C(=O)c3ccccc3)cc2)[C@@H](NC(=O)c2ccc3ccccc3n2)c2cc(OCCCO)ccc2N1C(=O)Cc1ccc(OC)cc1`
Result: condition met

Task: Check this compound for z-score at or above 0.5: `C=CCNC(=O)[C@@H]1[C@H]2C(=O)O[C@H](c3ccccc3)[C@H](c3ccccc3)N2[C@H](c2ccc(O)cc2)[C@@]12C(=O)N(C(=O)OCCOC)c1ccc(C#CC3=CCCCC3)cc12`
Result: condition not met

Task: Check this compound for z-score at or above 0.5: `CCCN1C(=O)[C@]2(Cc3ccccc31)N=C(c1ccc(OCCCO)cc1)O[C@@H]2c1ccccc1`
Result: condition met
